Target: T1, GABARAP (for ITC and NMR) (human, UniProt O95166 1-117)
T1 construct: GABARAP, human; source: E. coli NEB T7 Express, purified
T1 sequence (O95166 whole entry): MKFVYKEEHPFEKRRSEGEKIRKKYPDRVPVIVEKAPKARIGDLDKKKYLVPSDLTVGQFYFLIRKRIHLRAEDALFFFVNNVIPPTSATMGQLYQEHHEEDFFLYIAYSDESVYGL
Experiment: ITC; peptide 0.4 mM titrated into 0.020 mM LC3/GABARAP protein in 26 steps, 25°C; 50 mM Na2HPO4, 100 mM NaCl, pH 7.0; one-site model
Settings: both partners purified
pKd: −log10 of the molar value.
Known pKd of a selection of binders

{"binder": "PQQEDEWGNVQYPD (limits taken from the WT ITC peptide (P629-D642); N-terminal GAMG cloning remnant, printed only for WT, left out) [PLEKHM1‐LIR V636G peptide (ITC)]", "resultComparator": "=", "pKd": 4.28}
{"binder": "PQQEDEAVNVQYPD (limits taken from the WT ITC peptide (P629-D642); N-terminal GAMG cloning remnant, printed only for WT, left out) [PLEKHM1‐LIR W635A peptide (ITC)]", "resultComparator": "<", "pKd": 4.00}
{"binder": "GAMGPQQEDEWVNVQYPD (cloning artefact left after TEV cleavage; PLEKHM1 LIR, residues 629-642; 13C,15N- or 15N-labelled for some NMR experiments; also called PLEKHM1‐LIR WT; source: E. coli NEB T7, as Ub63 fusion, TEV-cleaved, purified (Ni-NTA, reverse Ni-NTA, gel filtration)) [PLEKHM1‐LIR peptide (GAMG‐P^629QQEDEWVNVQYPD^642)]", "resultComparator": "=", "pKd": 6.26}
